Data provenance: PubChem BioAssay AID1159580

# ASSAY_PROTOCOL: chemical genetic growth profiling, strain panel (AID 1159580);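 also: tested at 20 µM; growth read once vehicle control cultures reached saturation at 30 °C; 1 = growth at the plate median or of vehicle wells; lower values mean less growth of the strain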
# MEASUREMENT_CONDITIONS: S. cerevisiae deletion strains, growth OD, locus YOR184W, strain ser1, stronger effect = lower value
The campaign covered roughly 5,500 compounds. About 2,000 (36%) were called active. About 18% were inconclusive and are not listed. The list shows a part of the results.
Listing of recorded normalized growth by entry.

COMPOUND	normalized growth
Nc1ncn([C@@H]2O[C@H](CO)[C@@H](O)[C@H]2O)c(=O)n1	0.996
CC(C)NCC(O)c1ccc2ccccc2c1 (stereo not drawn)	0.978
Oc1c(I)cc(I)c2cccnc12	0.133
O=[N+]([O-])c1cc([As](=O)(O)O)ccc1O	0.0809
CCN(CC)CCOc1ccc2c(c1)C(=O)c1cc(OCCN(CC)CC)ccc1-2	0.976
COc1ccc(C(Cl)=C(c2ccc(OC)cc2)c2ccc(OC)cc2)cc1	1
CC(C)=CCC[C@](C)(O)C1CC=C(C)CC1 (stereo partly drawn)	0.994
O=C(OC1Cc2c(O)cc(O)cc2OC1c1cc(O)c(O)c(O)c1-c1c(C2Oc3cc(O)cc(O)c3CC2OC(=O)c2cc(O)c(O)c(O)c2)cc(O)c(O)c1O)c1cc(O)c(O)c(O)c1 (stereo not drawn)	0.982
CNc1ccccc1C(=O)O	1.01
C/C=C/c1ccc2c(c1)OCO2	0.994
NCCNC(=O)c1ccc(Cl)cc1	0.968
O=[N+]([O-])c1ccc(O)c([N+](=O)[O-])c1	0.799
NCC(CC(=O)O)c1ccc(Cl)s1 (stereo not drawn)	0.94
C=C(C)[C@H]1CC=C(C(=O)O)CC1	0.862
O=C(O)CCC(=O)C(=O)O	1.02
Nc1ccc(S(=O)(=O)Nc2ccc(Cl)nn2)cc1	1.02
CCC(Cc1c(I)cc(I)c(N)c1I)C(=O)O (stereo not drawn)	1.01
CC(C)(C)NC[C@@H](O)COc1nsnc1N1CCOCC1	0.989
CN/C(=C\[N+](=O)[O-])NCCSCc1ccc(CN(C)C)o1	0.994
CN[C@H](CC(=O)O)C(=O)O	0.936
Nc1ccc(C(=O)NCC(=O)O)cc1	1.02
CC(=O)Oc1ccc(Cl)c2cccnc12	0.0785
CCC[C@H]1CC2=C(C[C@@H](CC)CC3=C1C(=O)OC3=O)C(=O)OC2=O	1.02
CC(=O)Nc1cc([As](=O)(O)O)ccc1O	0.988
C=CC(C1=CC(=O)C=CC1=O)c1ccccc1 (stereo not drawn)	0.811
O=[N+]([O-])c1cc(O)c(O)c([N+](=O)[O-])c1	0.985
COC(=O)C[C@H]1C(C)(C)C(=O)[C@@H]2CC3=C4CC(=O)O[C@@H](c5ccoc5)[C@]4(C)CCC3[C@@]1(C)C2=O (stereo partly drawn)	1
C[n+]1cccc(C(=O)[O-])c1	1.02

====

Listing of recorded normalized growth by entry.
# ASSAY_PROTOCOL: chemical genetic growth profiling, strain panel (AID 1159580);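 also: tested at 20 µM; growth read once vehicle control cultures reached saturation at 30 °C; 1 = growth at the plate median or of vehicle wells; lower values mean less growth of the strain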
# MEASUREMENT_CONDITIONS: S. cerevisiae deletion strains, growth OD, locus YLR418C, strain cdc73, stronger effect = lower value
In all, about 5,500 compounds went through this assay and about 2,000 (36%) were called active. Another 18% or so got no clear call; they are omitted. Some of the results follow.

COMPOUND	normalized growth
CC(C)(C)NCC(O)c1ccccc1Cl (stereo not drawn)	0.993 (inactive)
O=C1C=CC2=C3c4cc(O)c(O)cc4C[C@@]3(O)COC2=C1	0.991 (inactive)
C=C[C@](C)(O)CCC=C(C)C	0.984 (inactive)
